Data origin: the Human Domainome abundance scans (Beltran et al. 2025)

Please go through the items and note down their abundance fitness.
B1: Transcription intermediary factor 1-beta, residues 620 to 671; numbered along this chain, Q13263 (parent)
chain: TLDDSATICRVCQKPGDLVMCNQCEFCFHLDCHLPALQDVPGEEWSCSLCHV

Variants of: B1
Experiment: abundance fitness (aPCA) (normalised: wild type 0, dead -1); higher = more abundant; growth selection in yeast, the domain comes from the species named
Conditions: Homo sapiens
Numbers only.

Task: For the variant T1W , what abundance fitness is on record?
Result: -0.8

Task: For the variant D3E , what abundance fitness is on record?
Result: 0.13

Task: For the variant C9M , what abundance fitness is on record?
Result: -0.706

Task: For the variant E44Q , what abundance fitness is on record?
Result: -0.057

Respectfully, I request abundance fitness for each entry included below.
1. F28W
2. G16V
3. V40W
4. E25Q
5. G42P

Result:
[0.093, -0.827, -0.101, -0.077, -0.085]

Respectfully, I request abundance fitness for each entry included below.
1. H51D
2. A6V

Result:
0.041
-0.35
